Consider the following molecules and their measured inhibition readings.
Assay: Metal chelating activity assessed as Cu2+-complex formation by measuring inhibition of Cu2+ induced amyloid beta (1 to 42) aggregation at 25 uM by Thioflavin T based fluorometric assay
# number only, unit % dropped from output

Examples with answers:
{"columns": ["molecule", "quantitativeResult"],
 "data": [
  ["CN(C)C(=O)Oc1ccc(C2CC(=O)c3c(O)cc(OC(=O)N(C)C)cc3O2)cc1 (stereo unspecified)", 53.5],
  ["COc1cc(/C=C/C(=O)CC(=O)/C=C/c2ccc(O)c(OC)c2)ccc1O", 73.3],
  ["O=C1C[C@@H](c2ccc(O)cc2)Oc2cc(O)cc(O)c21", 69.2]
]}

Prompt: Entry under review: O=C1CC(c2ccc(O)cc2)Oc2cc(OC(=O)N3CCOCC3)cc(O)c21 (stereo unspecified) . Reported inhibition?
Response: 60.9

Prompt: Again, but for CCN(C)C(=O)Oc1cc(O)c2c(c1)OC(c1ccc(O)cc1)CC2=O (stereo unspecified)
Response: 65.5

Prompt: Again, but for O=C1CC(c2ccc(O)cc2)Oc2cc(OC(=O)N3CCCCC3)cc(O)c21 (stereo unspecified)
Response: 61.1

---

Test: Metal chelating activity assessed as compound-Zn2+ complex formation by measuring new peak formation by fluorescence emission spectral analysis
Calls of active or inactive are those of the source. No cut-off for these calls is given here.
measuredMetric: Activity

{"columns": ["compound", "measuredMetric", "result"],
 "data": [
  ["CCN(C)C(=O)Oc1cc(O)c2c(c1)OC(c1ccc(O)cc1)CC2=O (centres undefined)", "Activity", "Active"],
  ["O=C1CC(c2ccc(O)cc2)Oc2cc(OC(=O)N3CCCCC3)cc(O)c21 (centres undefined)", "Activity", "Active"],
  ["CN(C)C(=O)Oc1ccc(C2CC(=O)c3c(O)cc(OC(=O)N(C)C)cc3O2)cc1 (centres undefined)", "Activity", "Active"],
  ["O=C1CC(c2ccc(O)cc2)Oc2cc(OC(=O)N3CCOCC3)cc(O)c21 (centres undefined)", "Activity", "Active"]
]}

---

Reported IC50 values, Cholinesterase (Equus caballus, UniProt P81908).
# number only, unit µM dropped from output

Examples with answers:
{"columns": ["compound", "studySystem", "quantitativeResult"],
 "data": [
  ["CCN(C)C(=O)Oc1cc(O)c2c(c1)OC(c1ccc(O)cc1)CC2=O (stereo not given)", "Cholinesterase (Equus caballus, UniProt P81908)", 3.42],
  ["CN(C)C(=O)Oc1ccc(C2CC(=O)c3c(O)cc(OC(=O)N(C)C)cc3O2)cc1 (stereo not given)", "Cholinesterase (Equus caballus, UniProt P81908)", 12.2],
  ["O=C1CC(c2ccc(O)cc2)Oc2cc(OC(=O)N3CCCCC3)cc(O)c21 (stereo not given)", "Cholinesterase (Equus caballus, UniProt P81908)", 0.094]
]}

Prompt: Entry under review: O=C1CC(c2ccc(O)cc2)Oc2cc(OC(=O)N3CCOCC3)cc(O)c21 (stereo not given) . Reported IC50?
Response: 13.7

---

Consider the following compounds and their measured inhibition readings.
Target: Amyloid-beta precursor protein (Homo sapiens)
Assay: Inhibition of amyloid beta (1 to 42) (unknown origin) self aggregation at 25 uM by Thioflavin T based fluorometric assay
# number only, unit % dropped from output

Examples with answers:
{"columns": ["compound", "inhibition, %"],
 "data": [
  ["O=C1C[C@@H](c2ccc(O)cc2)Oc2cc(O)cc(O)c21", 44.9],
  ["CCN(C)C(=O)Oc1cc(O)c2c(c1)OC(c1ccc(O)cc1)CC2=O (stereo not given)", 66.5],
  ["O=C1CC(c2ccc(O)cc2)Oc2cc(OC(=O)N3CCOCC3)cc(O)c21 (stereo not given)", 62.3],
  ["O=C1CC(c2ccc(O)cc2)Oc2cc(OC(=O)N3CCCCC3)cc(O)c21 (stereo not given)", 36.1]
]}

Prompt: Entry under review: CN(C)C(=O)Oc1ccc(C2CC(=O)c3c(O)cc(OC(=O)N(C)C)cc3O2)cc1 (stereo not given) . Reported inhibition?
Response: 62.4
